- tested_target: ZFP SBS#1215 (synthetic, UniProt P08047)
- Sequence (P08047 other isoform, or with tags, fused parts or gaps): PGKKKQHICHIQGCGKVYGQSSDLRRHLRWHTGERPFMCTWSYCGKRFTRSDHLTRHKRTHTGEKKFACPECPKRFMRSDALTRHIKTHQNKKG
- assay_notes: EMSA
- assay_context: tags: MBP fusion
pKd: −log10 of the molar value.

binder: GTGGGGGCT (dsDNA) DNA 1: GTGGGGGCT DNA 2: AGCCCCCAC
pKd: 11.52

Source listed as patent US20030068675.
